Assign Activity to each entry below.
- Test system: HepG2
- experiment: Cell cycle arrest in human HepG2 cells assessed as accumulation of cells at G0/G1 phase measured by flow cytometry (reference value: 71.6%)
- Format: functional
Output spec: scalar in %, unitless text.

## Task Identify measured Activity associated with O=C(CSc1nc2ccccc2c(=O)n1Cc1ccc2c(c1)OCO2)Nc1ccc(I)cc1
## Result 0.042

## Task Please list Activity recorded for the molecule CCS(=O)(=O)NNC(=O)CSc1nc2ccccc2c(=O)n1Cc1ccc2c(c1)OCO2
## Result 0.039

## Task Determine from records and report Activity for O=C(CSc1nc2ccccc2c(=O)n1Cc1ccc2c(c1)OCO2)Nc1ccccc1F
## Result 0

## Task Supply Activity value. Item: O=C(CSc1nc2ccccc2c(=O)n1Cc1ccc2c(c1)OCO2)Nc1ccc(Br)cc1Br
## Result 0.06

###

- Tested on: HepG2
- experiment: Radiosensitizing activity against human HepG2 cells assessed as downregulation of XIAP mRNA expression pretreated with compound followed by exposure to 8 Gy gamma irradiation by real time RT-PCR analysis
- Format: functional, cell-based
The source made the active and inactive calls. The calls are words filed in the database; no cut-off is given here.
test readout: Activity

structure_string=O=C(CSc1nc2ccccc2c(=O)n1Cc1ccc2c(c1)OCO2)Nc1ccc(Br)cc1Br test_readout=Activity reported_measurement=Active
structure_string=O=C(CSc1nc2ccccc2c(=O)n1Cc1ccc2c(c1)OCO2)Nc1ccc(I)cc1 test_readout=Activity reported_measurement=Active
structure_string=O=C(CSc1nc2ccccc2c(=O)n1Cc1ccc2c(c1)OCO2)Nc1ccccc1F test_readout=Activity reported_measurement=Active
structure_string=CCS(=O)(=O)NNC(=O)CSc1nc2ccccc2c(=O)n1Cc1ccc2c(c1)OCO2 test_readout=Activity reported_measurement=Active

###

test readout: pIC50
pIC50 is a log-scale quantity: -log10 of the concentration expressed in molar.

## Task Write down measured pIC50 (Epidermal growth factor receptor (Homo sapiens, UniProt P00533)) for this compound. O=C(CSc1nc2ccccc2c(=O)n1Cc1ccc2c(c1)OCO2)Nc1ccc(Br)cc1Br
## Result 5.99

###

- Tested on: HepG2
- experiment: Induction of apoptosis in human HepG2 cells assessed as viable cells by Annexin V-FITC/propidium iodide staining based flow cytometric analysis (reference value: 94.4 %)
- Format: functional
test readout: Activity (%)
Please state the figure in %; there is no need to write the unit.

## Task Tell me its Activity given O=C(CSc1nc2ccccc2c(=O)n1Cc1ccc2c(c1)OCO2)Nc1ccc(I)cc1 as the entry.
## Result 92.5

## Task Return reported Activity. Input compound: O=C(CSc1nc2ccccc2c(=O)n1Cc1ccc2c(c1)OCO2)Nc1ccc(Br)cc1Br
## Result 86.6

## Task Recall and state the measured Activity for O=C(CSc1nc2ccccc2c(=O)n1Cc1ccc2c(c1)OCO2)Nc1ccccc1F .
## Result 84.5

## Task Kindly indicate its recorded Activity. Item: CCS(=O)(=O)NNC(=O)CSc1nc2ccccc2c(=O)n1Cc1ccc2c(c1)OCO2
## Result 86.1

###

- Tested on: HepG2
- experiment: Induction of apoptosis in human HepG2 cells assessed as necrotic cells by Annexin V-FITC/propidium iodide staining based flow cytometric analysis (reference value: 0.007 %)
- Type: functional
test readout: Activity
Could you write the number and then its unit?

## Task State Activity on HepG2. Entry: CCS(=O)(=O)NNC(=O)CSc1nc2ccccc2c(=O)n1Cc1ccc2c(c1)OCO2
## Result 0.012%

## Task Would you please give the reported Activity of O=C(CSc1nc2ccccc2c(=O)n1Cc1ccc2c(c1)OCO2)Nc1ccc(I)cc1 with HepG2?
## Result 0.024%

## Task Jot down Activity (HepG2) of O=C(CSc1nc2ccccc2c(=O)n1Cc1ccc2c(c1)OCO2)Nc1ccc(Br)cc1Br .
## Result 0.02%

## Task State measured Activity of the compound O=C(CSc1nc2ccccc2c(=O)n1Cc1ccc2c(c1)OCO2)Nc1ccccc1F with HepG2.
## Result 0.02%

###

- experiment: Upregulation of p21 mRNA expression in human HepG2 cells by real time RT-PCR analysis relative to control
- Type: functional
Can you tell me Activity for the items I'm about to list?
Quick reminder: number only, in %, skip the unit.

## Task Identify measured Activity corresponding to CCS(=O)(=O)NNC(=O)CSc1nc2ccccc2c(=O)n1Cc1ccc2c(c1)OCO2
## Result 500

## Task Name the recorded Activity of the item O=C(CSc1nc2ccccc2c(=O)n1Cc1ccc2c(c1)OCO2)Nc1ccccc1F in your answer.
## Result 400

## Task Input O=C(CSc1nc2ccccc2c(=O)n1Cc1ccc2c(c1)OCO2)Nc1ccc(Br)cc1Br , output reported Activity.
## Result 400

## Task State, in one line, measured Activity of O=C(CSc1nc2ccccc2c(=O)n1Cc1ccc2c(c1)OCO2)Nc1ccc(I)cc1
## Result 200

###

- Tested on: HepG2
- experiment: Induction of apoptosis in human HepG2 cells assessed as increase in caspase-3 level by ELISA relative to control
- Assay type: functional
test readout: Activity (%)
Supply the numeric figure in %, leaving out any unit text.

## Task Retrieve Activity measured for O=C(CSc1nc2ccccc2c(=O)n1Cc1ccc2c(c1)OCO2)Nc1ccc(Br)cc1Br and print it.
## Result 50

## Task Answer with reported Activity of O=C(CSc1nc2ccccc2c(=O)n1Cc1ccc2c(c1)OCO2)Nc1ccccc1F
## Result 100

## Task Item O=C(CSc1nc2ccccc2c(=O)n1Cc1ccc2c(c1)OCO2)Nc1ccc(I)cc1 : provide Activity
## Result 50

## Task Give Activity for the following compound: CCS(=O)(=O)NNC(=O)CSc1nc2ccccc2c(=O)n1Cc1ccc2c(c1)OCO2
## Result 50

###

- Tested on: HepG2
- experiment: Induction of apoptosis in human HepG2 cells assessed as early apoptotic cells by Annexin V-FITC/propidium iodide staining based flow cytometric analysis (reference value: 5.06 %)
- Format: functional
Task for the reader: assign each of the following compounds its reported Activity.
Please state the figure in %; there is no need to write the unit.

## Task Give the reported Activity for this compound. CCS(=O)(=O)NNC(=O)CSc1nc2ccccc2c(=O)n1Cc1ccc2c(c1)OCO2
## Result 13.5

## Task Answer with reported Activity of O=C(CSc1nc2ccccc2c(=O)n1Cc1ccc2c(c1)OCO2)Nc1ccc(Br)cc1Br
## Result 15.4

## Task Respond only with Activity recorded for O=C(CSc1nc2ccccc2c(=O)n1Cc1ccc2c(c1)OCO2)Nc1ccccc1F
## Result 12.6

## Task Answer with reported Activity of O=C(CSc1nc2ccccc2c(=O)n1Cc1ccc2c(c1)OCO2)Nc1ccc(I)cc1
## Result 7.12
